test system: HeLa cells; test: Secondary assay: cell proliferation WST-1, HeLa; type: cell-based; conditions: Homo sapiens, 48 h, read-out: Cell Proliferation Inhibition WST-1 (IC50 unless otherwise specified) HeLa
Counter-ions that a name gives are not always drawn.
Assay Metric: IC50 (µM)
Supply the numeric figure in µM, leaving out any unit text.

Worked set:
CN(C)c1ccc(C(=O)NCCCCCC(=O)NO)cc1 :: 4.4
CC(C)c1ccc(C(=O)NCCCCCC(=O)NO)cc1 :: 3.1
O=C(CCCCCNC(=O)c1ccco1)NO :: 18
Cc1ccc(C(CC(=O)NCCCCCC(=O)NO)NC(=O)OCc2ccccc2)cc1 (stereo not drawn) :: 33
O=C(/C=C/C=C/c1cccc2ccccc12)NCCCCCC(=O)NO :: 17

Query: Item under review: O=C(CCCCCNC(=O)[C@H](Cc1c[nH]c2ccccc12)NC(=O)CCCc1c[nH]c2ccccc12)NO . Reported IC50?
Response: 15

Query: Would you mind doing O=C(/C=C/c1ccncc1)NCCCCCC(=O)NO [PX106521, oxalate] as well?
Response: 46

Query: Would you mind doing O=C(/C=C/c1cccc2ccccc12)NCCCCCC(=O)NO as well?
Response: 17

Query: Would you mind doing O=C(CCCCCNC(=O)[C@H](Cc1c[nH]c2ccccc12)NC(=O)c1ccc2ccccc2c1)NO as well?
Response: 6
